target: fibrinogen receptor (αIIbβ3) (Homo sapiens, UniProt P05106+P08514); construct: followed by the addition of 1 µg of the purified platelet αIIbβ3-containing liposomes; tissue Red Cross (platelets); host or cells: outdated, washed human platelets; lentil lectin sepharose purification; experiment: Competitive binding of [3H]-SK&F-107260 to αIIbβ3 in liposomes; conditions: purified platelet αIIbβ3-containing liposomes, 4.5 nM [3H]-SK&F-107260
Sequence (P08514 32-887 limits assumed): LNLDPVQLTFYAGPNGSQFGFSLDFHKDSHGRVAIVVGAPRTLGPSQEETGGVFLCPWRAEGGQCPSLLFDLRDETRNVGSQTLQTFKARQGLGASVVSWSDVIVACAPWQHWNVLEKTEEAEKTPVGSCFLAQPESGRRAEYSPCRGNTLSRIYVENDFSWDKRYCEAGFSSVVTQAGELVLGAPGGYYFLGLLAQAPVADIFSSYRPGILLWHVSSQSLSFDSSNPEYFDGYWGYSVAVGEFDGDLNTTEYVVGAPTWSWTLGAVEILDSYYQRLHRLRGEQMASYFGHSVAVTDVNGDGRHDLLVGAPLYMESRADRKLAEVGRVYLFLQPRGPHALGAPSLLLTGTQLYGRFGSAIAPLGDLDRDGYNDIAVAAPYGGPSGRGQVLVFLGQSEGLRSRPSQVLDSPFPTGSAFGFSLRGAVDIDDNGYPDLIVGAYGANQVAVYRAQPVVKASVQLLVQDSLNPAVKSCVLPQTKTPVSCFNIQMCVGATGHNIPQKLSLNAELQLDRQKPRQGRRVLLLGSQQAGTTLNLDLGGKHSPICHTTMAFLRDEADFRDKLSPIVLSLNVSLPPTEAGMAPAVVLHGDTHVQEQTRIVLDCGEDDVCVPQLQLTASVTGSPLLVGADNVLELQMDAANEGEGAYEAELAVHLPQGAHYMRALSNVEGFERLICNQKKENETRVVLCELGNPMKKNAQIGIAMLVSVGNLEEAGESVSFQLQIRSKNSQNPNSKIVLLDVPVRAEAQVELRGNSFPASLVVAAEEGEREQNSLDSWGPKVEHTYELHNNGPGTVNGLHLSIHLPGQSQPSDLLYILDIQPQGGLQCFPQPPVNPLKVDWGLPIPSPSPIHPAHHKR
Sequence (P08514 891-1039 partner limits assumed): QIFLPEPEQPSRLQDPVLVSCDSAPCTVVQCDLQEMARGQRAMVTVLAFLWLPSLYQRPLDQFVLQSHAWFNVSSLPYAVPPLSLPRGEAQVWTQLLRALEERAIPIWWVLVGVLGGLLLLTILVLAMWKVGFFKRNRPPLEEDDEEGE
Sequence (P05106 27-788): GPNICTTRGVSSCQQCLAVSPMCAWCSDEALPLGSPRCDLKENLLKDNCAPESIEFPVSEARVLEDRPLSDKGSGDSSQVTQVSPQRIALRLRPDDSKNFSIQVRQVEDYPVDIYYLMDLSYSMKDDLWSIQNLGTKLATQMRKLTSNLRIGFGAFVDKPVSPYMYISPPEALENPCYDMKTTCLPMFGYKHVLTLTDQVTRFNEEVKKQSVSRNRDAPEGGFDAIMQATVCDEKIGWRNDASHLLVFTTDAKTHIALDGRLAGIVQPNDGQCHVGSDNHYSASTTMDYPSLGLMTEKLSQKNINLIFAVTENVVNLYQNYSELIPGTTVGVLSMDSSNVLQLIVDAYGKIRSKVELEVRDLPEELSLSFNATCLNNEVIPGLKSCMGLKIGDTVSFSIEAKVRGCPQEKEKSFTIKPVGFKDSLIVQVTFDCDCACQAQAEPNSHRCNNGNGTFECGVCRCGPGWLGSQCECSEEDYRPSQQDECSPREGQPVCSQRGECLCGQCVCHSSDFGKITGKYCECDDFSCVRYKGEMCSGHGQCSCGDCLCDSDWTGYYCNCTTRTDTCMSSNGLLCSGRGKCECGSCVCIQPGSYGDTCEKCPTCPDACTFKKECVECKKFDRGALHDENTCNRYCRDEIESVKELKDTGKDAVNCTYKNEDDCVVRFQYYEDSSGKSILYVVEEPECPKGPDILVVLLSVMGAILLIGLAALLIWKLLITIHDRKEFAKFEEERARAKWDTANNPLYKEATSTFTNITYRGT
measureName: pKi
Friendly reminder that pKi comes from taking -log10 of the concentration in mol/L.

Enquiry: If you can, please state the reported pKi value of O=C(O)CC1Cc2ccc(C(=O)N3CCC(C4CCNCC4)CC3)cc2Cc2ccccc21 (racemic) .
Return: 8.05
